Ref: the supplement of paper PMC11061612

test system: NCI-H211 (Small Cell Lung Carcinoma); assay: Bliss excess, mean over the matrix (fraction); higher = more synergy;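 also: after 72 h of two-drug dosing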
Exercise: for every item that follows, state its recorded Bliss excess.
Give bare numbers.

Need Bliss excess for each of these compounds.
1. COc1nnc2ccc(N3CCC(c4ccc(OCCN5CCN(C)C(=O)[C@H]5C)cc4)CC3)nn12 [AZD5153] + CCN(CCO)CCCOc1ccc2c(Nc3cc(CC(=O)Nc4cccc(F)c4)[nH]n3)ncnc2c1 [AZD2811] (first compound max 1 µM, 7x7, partner max 1 µM)
2. CN(CCO)CC[C@H](CSc1ccccc1)Nc1ccc(S(=O)(=O)NC(=O)c2ccc(N3CCC([C@@H](O)c4ccccc4-c4ccc(Cl)cc4)CC3)cc2)cc1S(=O)(=O)C(F)(F)F [AZD4320] + Nc1ccn([C@@H]2O[C@H](CO)[C@@H](O)C2(F)F)c(=O)n1 [Gemcitabine] (first compound max 1 µM, 7x7, partner max 0.3 µM)
3. Cc1c2c(nn1C)CSCc1cc(n(C)n1)CSc1cc(c3ccccc3c1)OCCCc1c(C(=O)O)n(C)c3c-2c(Cl)ccc13 [AZD5991] + Nc1ccn([C@@H]2O[C@H](CO)[C@@H](O)C2(F)F)c(=O)n1 [Gemcitabine] (first compound max 1 µM, 7x7, partner max 0.3 µM)
4. N#Cc1cnc(Nc2cc(NC[C@H]3CNCCO3)c(C(F)(F)F)cn2)cn1 [SRA737] + CCc1c2c(nc3ccc(O)cc13)-c1cc3c(c(=O)n1C2)COC(=O)[C@]3(O)CC [SN-38] (first compound max 10 µM, 7x7, partner max 0.3 µM)
5. NC1(C(=O)N[C@@H](CCO)c2ccc(Cl)cc2)CCN(c2ncnc3[nH]ccc23)CC1 [Capivasertib] + Cn1cnc2c(F)c(Nc3ccc(Br)cc3Cl)c(C(=O)NOCCO)cc21 [Selumetinib] (first compound max 10 µM, 7x7, partner max 10 µM)

[-0.0081, 0.0135, 0.0489, -0.0649, 0.119]

* * *

tested on: DOV13 (Ovarian Carcinoma); assay: Bliss excess, mean over the matrix (fraction); higher = more synergy
Please note: yes applies when Bliss excess is -0.04 or greater, and no applies otherwise.

• COc1nnc2ccc(N3CCC(c4ccc(OCCN5CCN(C)C(=O)[C@H]5C)cc4)CC3)nn12 [AZD5153] + Cc1c2c(nn1C)CSCc1cc(n(C)n1)CSc1cc(c3ccccc3c1)OCCCc1c(C(=O)O)n(C)c3c-2c(Cl)ccc13 [AZD5991] (first compound max 1 µM, 7x7, partner max 1 µM) = no

Now take the following compound into account.
Check if Bliss excess >= -0.04 (inclusive). Item: COc1nnc2ccc(N3CCC(c4ccc(OCCN5CCN(C)C(=O)[C@H]5C)cc4)CC3)nn12 [AZD5153] + CCN(CCO)CCCOc1ccc2c(Nc3cc(CC(=O)Nc4cccc(F)c4)[nH]n3)ncnc2c1 [AZD2811] (first compound max 1 µM, 7x7, partner max 1 µM)
no

* * *

system: NALM-6 (B-Lymphoblastic Leukemia); assay: Bliss excess, mean over the matrix (fraction); higher = more synergy
Decision: Bliss excess compared against -0.008; not below it gives y, below it gives n.

Before answering, review these 3 worked examples.
- COc1cc2ncnc(Nc3ccc(F)c(Cl)c3)c2cc1OCCCN1CCOCC1 [Gefitinib] + CC(C)n1c(=O)n(C)c2cnc3cc(F)c(-c4ccc(OCCCN5CCCCC5)nc4)cc3c21 [AZD1390] (first compound max 10 µM, 7x7, partner max 0.3 µM): n
- Cc1nc(Nc2ncc(C(=O)Nc3c(C)cccc3Cl)s2)cc(N2CCN(CCO)CC2)n1 [Dasatinib] + CC(=O)Nc1cccc(-n2c(=O)n(C3CC3)c(=O)c3c(Nc4ccc(I)cc4F)n(C)c(=O)c(C)c32)c1 [Trametinib] (first compound max 2 µM, 7x7, partner max 1 µM): y
- COc1nnc2ccc(N3CCC(c4ccc(OCCN5CCN(C)C(=O)[C@H]5C)cc4)CC3)nn12 [AZD5153] + C[C@@H]1COCCN1C2=NC(=NC(=C2)C3(CC3)[S@](=N)(=O)C)C4=C5C=CNC5=NC=C4 [AZD6738] (first compound max 1 µM, 7x7, partner max 10 µM): n

Please tell me: is the compound O=C(c1cc(Cc2n[nH]c(=O)c3ccccc23)ccc1F)N1CCN(C(=O)C2CC2)CC1 [Olaparib] + CC1(C)CCC(CN2CCN(c3ccc(C(=O)NS(=O)(=O)c4ccc(NCC5CCOCC5)c([N+](=O)[O-])c4)c(Oc4cnc5[nH]ccc5c4)c3)CC2)=C(c2ccc(Cl)cc2)C1 [Venetoclax] (first compound max 10 µM, 7x7, partner max 1 µM) at or over -0.008 in terms of Bliss excess?
y

Exam item: decide whether the reported Bliss excess for CC1(C)CCC(CN2CCN(c3ccc(C(=O)NS(=O)(=O)c4ccc(NCC5CCOCC5)c([N+](=O)[O-])c4)c(Oc4cnc5[nH]ccc5c4)c3)CC2)=C(c2ccc(Cl)cc2)C1 [Venetoclax] + C[C@@H]1COCCN1C2=NC(=NC(=C2)C3(CC3)[S@](=N)(=O)C)C4=C5C=CNC5=NC=C4 [AZD6738] (first compound max 1 µM, 7x7, partner max 10 µM) is at least -0.008.
y

Decide: is the reported value of Bliss excess for COc1cccc(OCCCN)c1-c1cc(Nc2cnc(C#N)cn2)n[nH]1 [Prexasertib] + C[C@@H]1COCCN1C2=NC(=NC(=C2)C3(CC3)[S@](=N)(=O)C)C4=C5C=CNC5=NC=C4 [AZD6738] (first compound max 1 µM, 7x7, partner max 10 µM) equal to or greater than -0.008?
n

Say whether N#Cc1cnc(Nc2cc(NC[C@H]3CNCCO3)c(C(F)(F)F)cn2)cn1 [SRA737] + CCc1c2c(nc3ccc(O)cc13)-c1cc3c(c(=O)n1C2)COC(=O)[C@]3(O)CC [SN-38] (first compound max 10 µM, 7x7, partner max 0.3 µM) shows Bliss excess of -0.008 or more.
n
